target system: interaction of ICAM-1 with the Leukointegrin CD18/CD11a (LFA-1) (Homo sapiens, UniProt P05107+P20701)
Construct: endogenous in cells; sICAM-1: made in house, secreted from transfected CHO DUX cells
Sequence (P20701 26-1170): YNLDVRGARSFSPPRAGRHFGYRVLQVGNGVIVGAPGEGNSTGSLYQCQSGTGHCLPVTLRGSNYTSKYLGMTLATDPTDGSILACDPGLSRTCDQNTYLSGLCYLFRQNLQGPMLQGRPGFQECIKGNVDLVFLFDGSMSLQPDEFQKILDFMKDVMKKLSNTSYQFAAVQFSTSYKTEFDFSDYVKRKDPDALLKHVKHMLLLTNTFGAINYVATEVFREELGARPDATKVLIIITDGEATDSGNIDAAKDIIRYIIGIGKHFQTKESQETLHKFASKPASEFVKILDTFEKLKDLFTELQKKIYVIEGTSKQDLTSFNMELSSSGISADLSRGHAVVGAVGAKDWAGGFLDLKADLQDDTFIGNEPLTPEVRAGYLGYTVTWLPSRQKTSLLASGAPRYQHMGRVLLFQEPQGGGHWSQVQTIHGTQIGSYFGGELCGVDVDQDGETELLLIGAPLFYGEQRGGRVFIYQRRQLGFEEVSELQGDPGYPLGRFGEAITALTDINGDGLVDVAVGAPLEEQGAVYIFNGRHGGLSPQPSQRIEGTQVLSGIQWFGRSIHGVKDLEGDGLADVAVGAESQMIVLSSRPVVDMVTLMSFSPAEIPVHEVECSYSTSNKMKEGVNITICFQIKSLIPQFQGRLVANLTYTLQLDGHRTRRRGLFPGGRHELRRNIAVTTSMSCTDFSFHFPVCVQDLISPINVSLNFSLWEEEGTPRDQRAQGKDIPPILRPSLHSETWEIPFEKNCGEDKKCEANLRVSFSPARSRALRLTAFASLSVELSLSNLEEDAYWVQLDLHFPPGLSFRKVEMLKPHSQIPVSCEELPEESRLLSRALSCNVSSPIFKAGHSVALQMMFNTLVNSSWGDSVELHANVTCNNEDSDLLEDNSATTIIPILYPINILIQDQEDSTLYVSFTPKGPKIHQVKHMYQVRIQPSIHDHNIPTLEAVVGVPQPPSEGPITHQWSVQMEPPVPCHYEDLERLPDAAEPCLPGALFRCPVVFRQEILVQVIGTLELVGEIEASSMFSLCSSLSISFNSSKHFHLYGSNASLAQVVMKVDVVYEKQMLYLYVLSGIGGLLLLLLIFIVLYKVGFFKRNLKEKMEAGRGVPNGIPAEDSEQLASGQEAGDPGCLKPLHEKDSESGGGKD
Sequence (P05107 23-769): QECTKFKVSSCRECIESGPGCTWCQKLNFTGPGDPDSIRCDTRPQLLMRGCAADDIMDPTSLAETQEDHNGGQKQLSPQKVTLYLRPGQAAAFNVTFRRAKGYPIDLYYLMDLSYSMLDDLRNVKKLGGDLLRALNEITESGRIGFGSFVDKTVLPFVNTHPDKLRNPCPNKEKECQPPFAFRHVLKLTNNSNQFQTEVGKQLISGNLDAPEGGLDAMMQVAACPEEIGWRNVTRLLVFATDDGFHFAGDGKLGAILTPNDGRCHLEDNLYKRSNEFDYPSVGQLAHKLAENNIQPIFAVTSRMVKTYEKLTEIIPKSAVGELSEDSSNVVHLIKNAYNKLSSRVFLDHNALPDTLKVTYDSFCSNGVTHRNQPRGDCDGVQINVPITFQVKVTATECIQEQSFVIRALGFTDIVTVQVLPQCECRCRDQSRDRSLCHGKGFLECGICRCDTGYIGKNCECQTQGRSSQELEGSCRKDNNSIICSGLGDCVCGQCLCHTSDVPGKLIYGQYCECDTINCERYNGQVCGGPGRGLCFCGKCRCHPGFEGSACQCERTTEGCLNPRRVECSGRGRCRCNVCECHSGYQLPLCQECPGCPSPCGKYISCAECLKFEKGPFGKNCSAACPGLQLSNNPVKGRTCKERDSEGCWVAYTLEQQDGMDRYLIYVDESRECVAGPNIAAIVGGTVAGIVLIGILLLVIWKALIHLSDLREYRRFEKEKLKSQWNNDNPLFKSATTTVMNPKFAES
assay comment: Assay to determine inhibition of LFA-1 binding to ICAM-1 (immunopurified LFA-1 on plate-bound sICAM-1, ELISA readout)
condition details: values marked e approximated from incomplete dose-response curve
So I've got a bunch of molecules here, and I need their Kd values.
Number first, unit second: that is the form wanted.

>  <molecule>
CC1(Cc2cccc(Oc3ccccc3)c2)NC(=O)N(c2cc(Cl)cc(Cl)c2)C1=O (centres unmarked) [Example 56]

>  <readout value>
480 nM

$$$$
>  <molecule>
C[C@]1(Cc2cccc(-c3ccccc3)c2)NC(=O)N(c2cc(Cl)cc(Cl)c2)C1=O [Example 185]

>  <readout value>
250 nM

$$$$

Items follow; give Kd for each.
1. CCCN1C(=O)N(c2cc(Cl)cc(Cl)c2)C(=O)[C@@]1(C)Cc1ccc(Br)cc1 [Example 98]
2. C[C@@]1(Cc2ccc(Br)cc2)C(=O)N(c2cc(Cl)cc(Cl)c2)C(=O)N1Cc1ccc(C#N)cc1 [Example 115]
3. CC1(Cc2ccc(SC(F)(F)F)cc2)NC(=O)N(c2cc(Cl)cc(Cl)c2)C1=O (centres unmarked) [Example 60]
4. CCC1(Cc2ccc(Br)cc2)C(=O)N(c2cc(Cl)cc(Cl)c2)C(=O)N1C (centres unmarked) [Example 172]
5. Cc1cc(Br)cc(C)c1C[C@]1(C)C(=O)N(c2cc(Cl)cc(Cl)c2)C(=O)N1C [Example 122]
6. CCCN1C(=O)N(c2cc(Cl)cc(Cl)c2)C(=O)C1(C)Cc1ccc(Br)cc1 (centres unmarked) [Example 137]

Output line:
1: 55 nM; 2: 240 nM; 3: 230 nM; 4: 170 nM; 5: 130 nM; 6: 40 nM

---

Tested on: allogeneic cell transplant response, popliteal lymph node
assay comment: In vivo allogeneic cell transplant model (popliteal lymph node weight)
condition details: Mus musculus, po; mice, per os, dose at which 50% inhibition is observed; read-out: Allogeneic Cell Transplantation Assay ACT ED50
assay metric: ED50

>  <structure>
CC(=O)N1C(=O)N(c2cc(Cl)cc(Cl)c2)C(=O)[C@@]1(C)Cc1ccc(-c2cccnc2)cc1

>  <ED50>
~90 mg/kg

$$$$
>  <structure>
CC(=O)N1C(=O)N(c2cc(Cl)cc(Cl)c2)C(=O)[C@@]1(C)Cc1ccc(Br)cc1

>  <ED50>
~25 mg/kg

$$$$
>  <structure>
C[C@]1(Cc2ccc(Br)cc2)NC(=O)N(c2cc(Cl)cc(Cl)c2)C1=O

>  <ED50>
~60 mg/kg

$$$$

Input line: Param readout = ED50; param system = allogeneic cell transplant response, popliteal lymph node; param query = `CN1C(=O)N(c2cc(Cl)cc(Cl)c2)C(=O)[C@@]1(C)Cc1ccc(Br)cc1` ; response: value
Output line: ~20 mg/kg

---

Form: system (SKW3 cells), quantity (Cellular Toxicity Assay MTT LD50), values below.

Example molecules with recorded Cellular Toxicity Assay MTT LD50:
>  <molecule>
CN1C(=O)N(c2cc(Cl)cc(Cl)c2)C(=O)C1(C)Cc1ccc(Cl)cc1 (centres unmarked)

>  <target system>
SKW3 cells

>  <Cellular Toxicity Assay MTT LD50>
200 µM

$$$$
>  <molecule>
CCN1C(=O)N(c2cc(Cl)cc(Cl)c2)C(=O)[C@@]1(C)Cc1ccc(Br)cc1

>  <target system>
SKW3 cells

>  <Cellular Toxicity Assay MTT LD50>
>350 µM

$$$$
>  <molecule>
C[C@@]1(Cc2ccc(Br)cc2)C(=O)N(c2cc(Cl)cc(Cl)c2)C(=O)N1Cc1ccc(C(=O)O)cc1

>  <target system>
SKW3 cells

>  <Cellular Toxicity Assay MTT LD50>
50 to 100 µM

$$$$

Items follow; give Cellular Toxicity Assay MTT LD50 for each.
1. CN1C(=O)N(c2cc(C(F)(F)F)cc(C(F)(F)F)c2)C(=O)C1(C)Cc1ccccc1 (centres unmarked) [Example 88]
2. O=C1N[C@H](Cc2ccccc2)C(=O)N1c1cc(Cl)cc(Cl)c1

Output line:
250 to 500 µM
125 to 250 µM

Items follow; give Cellular Toxicity Assay MTT LD50 for each.
1. CC(C)N1C(=O)N(c2cc(Cl)cc(Cl)c2)C(=O)[C@@]1(C)Cc1ccc(Br)cc1
2. C[C@@]1(Cc2ccc(Br)cc2)C(=O)N(c2cc(Cl)cc(Cl)c2)C(=O)N1C[C@@H](O)c1ccccc1
3. C[C@@]1(Cc2ccc(Br)cc2)C(=O)N(c2cc(Cl)cc(Cl)c2)C(=O)N1CCCCCNC(=N)N
4. C[C@@]1(Cc2ccccc2)NC(=O)N(c2cc(Cl)cc(Cl)c2)C1=O
5. CCCN1C(=O)N(c2cc(Cl)cc(Cl)c2)C(=O)[C@@]1(C)Cc1ccc(Br)cc1
6. CN1C(=O)N(c2cc(Cl)cc(Cl)c2)C(=O)C1(C)Cc1ccc(F)cc1 (centres unmarked)
7. O=C1NC(Cc2ccc([N+](=O)[O-])cc2)C(=O)N1c1cc(Cl)cc(Cl)c1 (centres unmarked) [Example 24]

Output line:
150 to 300 µM
>400 µM
12 to 24 µM
125 to 250 µM
>340 µM
100 µM
>400 µM
